- tgt: MAGL (Mus musculus)
- Construct: Proteomes (mouse brain membrane fraction or cell lysates); from tissue; host or cells: mouse brain membrane fraction or cell lysates
- measurement notes: Mouse brain proteomes from inhibitor treated mice, MAGL inhibition
- Format: in vivo
- protocol conditions: 5 mg/kg oral gavage, C57Bl/6J mouse brain, 4 h following administration; read-out: MAGL % inh. 5 mg/kg (mouse)
Recorded inhibition at 5 mg/kg values for a group of compounds are listed next.

compound	inhibition at 5 mg/kg
Cc1cc(C(=O)O)sc1-c1cc(C(F)(F)F)ccc1CN1CCN(C(=O)OC(C(F)(F)F)C(F)(F)F)CC1	25 to 50%

# context switch: different compound, same inhibition at 5 mg/kg
Enquiry: Using MAGL (Mus musculus) as the test system, report measured inhibition at 5 mg/kg of "O=C(O)C1CCN(C(=O)c2cc(CN3CCN(C(=O)OC(C(F)(F)F)C(F)(F)F)CC3)ccc2C(F)(F)F)CC1" .
Return: 0 to 25%

* * *

- tgt: ABHD6 (Homo sapiens, UniProt Q9BV23)
- Construct: Proteomes (human prefrontal cortex or cell membrane fractions); endogenous in cells; human prefrontal cortex
- Sequence (Q9BV23 whole entry): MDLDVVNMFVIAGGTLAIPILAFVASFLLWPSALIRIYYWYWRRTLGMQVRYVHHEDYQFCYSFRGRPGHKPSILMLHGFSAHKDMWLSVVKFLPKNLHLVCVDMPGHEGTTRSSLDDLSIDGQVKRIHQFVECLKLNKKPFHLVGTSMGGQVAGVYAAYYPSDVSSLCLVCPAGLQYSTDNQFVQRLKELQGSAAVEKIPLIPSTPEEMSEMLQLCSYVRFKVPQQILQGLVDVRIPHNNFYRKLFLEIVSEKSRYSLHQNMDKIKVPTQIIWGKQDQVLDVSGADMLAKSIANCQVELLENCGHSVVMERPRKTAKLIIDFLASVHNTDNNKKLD
- measurement notes: In vitro competitive activity-based protein profiling (human), ABHD6
- Assay type: biochemical
- protocol conditions: human PC3
- Procedure: In Vitro Competitive Activity-Based Protein Profiling (Human). Proteomes (human prefrontal cortex or cell membrane fractions) (50 μL, 1.0-2.0 mg/mL total protein concentration) were preincubated with varying concentrations of inhibitors at 37° C. […] Following gel imaging, serine hydrolase activity was determined by measuring fluorescent intensity of gel bands corresponding to MAGL and ABHD6 using ImageJ 1.49 k software.
reported property: IC50

molecule	IC50
Cc1ccc(CN2CCN(C(=O)OC(C(F)(F)F)C(F)(F)F)CC2)c(C2(C(=O)O)CCCC2)c1	1 to 10 µM

Enquiry: Using ABHD6 (Homo sapiens, UniProt Q9BV23) as the test system, report measured IC50 of "O=C(O)CN1CC2(CCN(c3cc(Cl)ccc3CN3CCN(C(=O)OC(C(F)(F)F)C(F)(F)F)CC3)CC2)C1" .
Return: 1 to 10 µM

Enquiry: Using ABHD6 (Homo sapiens, UniProt Q9BV23) as the test system, report measured IC50 of "O=C(OC(C(F)(F)F)C(F)(F)F)N1CCN(Cc2cc(C(F)(F)F)cc(C3(C(=O)O)CCCC3)c2)CC1" .
Return: 0.1 to 1 µM

* * *

- tgt: ABHD6 (Mus musculus, UniProt Q8R2Y0)
- Construct: Proteomes (mouse brain membrane fraction or cell lysates); from tissue; host or cells: mouse brain membrane fraction or cell lysates
- measurement notes: In vitro competitive activity-based protein profiling (mouse), ABHD6
- Assay type: biochemical
- protocol conditions: 1 μM inhibitor, mouse brain membrane fraction or cell lysates; read-out: ABHD6 % inh. 1 μM (mouse)
Recorded inhibition at 1 µM values for a group of molecules are listed next.

molecule	inhibition at 1 µM
O=C(O)C1CCN(c2cc(C(F)F)ccc2CN2CCN(C(=O)OC(C(F)(F)F)C(F)(F)F)CC2)CC1	≥ 75%
O=C(O)Cn1ccc(-c2cc(F)ccc2CN2CCN(C(=O)OC(C(F)(F)F)C(F)(F)F)CC2)n1	0 to 25%
O=C(O)C1COCCN1c1cc(CN2CCN(C(=O)OC(C(F)(F)F)C(F)(F)F)CC2)cc(C(F)(F)F)c1 (stereo not shown)	≥ 75%

Enquiry: Please give measured inhibition at 1 µM of the following entry: "CC1(C(=O)O)CCN(c2cc(Cl)ccc2CN2CCN(C(=O)OC(C(F)(F)F)C(F)(F)F)CC2)CC1"
Return: 50 to 75%

* * *

Recorded IC50 values for a group of compounds are listed next.
- tgt: MAGL (Homo sapiens)
- Construct: Proteomes (human prefrontal cortex or cell membrane fractions); from tissue
- Sequence (Q99685 whole entry): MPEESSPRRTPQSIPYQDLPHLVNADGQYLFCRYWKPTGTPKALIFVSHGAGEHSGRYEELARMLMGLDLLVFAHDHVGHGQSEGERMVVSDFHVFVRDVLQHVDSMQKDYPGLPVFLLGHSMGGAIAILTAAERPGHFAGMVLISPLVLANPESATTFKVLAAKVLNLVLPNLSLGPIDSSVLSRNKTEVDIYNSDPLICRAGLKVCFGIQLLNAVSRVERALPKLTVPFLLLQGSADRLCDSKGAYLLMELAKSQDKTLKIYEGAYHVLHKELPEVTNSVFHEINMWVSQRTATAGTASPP
- measurement notes: In vitro competitive activity-based protein profiling (human), MAGL
- Format: biochemical
- protocol conditions: human PC3

Enquiry: Please give measured IC50 of the following entry: "O=C(O)Cn1ccc(-c2cc(Cl)ccc2CN2CCN(C(=O)OC(C(F)(F)F)C(F)(F)F)CC2)n1"
Return: ≤ 0.1 µM

Enquiry: Please give measured IC50 of the following entry: O=C(O)[C@@H]1CC(c2cc(C(F)(F)F)ccc2CN2CCN(C(=O)OC(C(F)(F)F)C(F)(F)F)CC2)CN1 (stereo partly drawn)
Return: ≤ 0.1 µM

Enquiry: Please give measured IC50 of the following entry: "O=C(OC(C(F)(F)F)C(F)(F)F)N1CCN(Cc2ccc(F)cc2C2(C(=O)O)CCCC2)CC1"
Return: ≤ 0.1 µM

Enquiry: Please give measured IC50 of the following entry: "CC1(C(=O)O)CCN(c2cc(CN3CCN(C(=O)OC(C(F)(F)F)C(F)(F)F)CC3)cc(C(F)(F)F)c2)CC1"
Return: ≤ 0.1 µM

Enquiry: Please give measured IC50 of the following entry: O=C(O)C1COCCN1c1cc(C(F)(F)F)ccc1CN1CCN(C(=O)OC(C(F)(F)F)C(F)(F)F)CC1 (stereo not drawn)
Return: 0.1 to 1 µM

Enquiry: Please give measured IC50 of the following entry: "O=C(O)CN1CC2(CCN(c3cc(C(F)(F)F)ccc3CN3CCN(C(=O)OC(C(F)(F)F)C(F)(F)F)CC3)CC2)C1"
Return: ≤ 0.1 µM

Enquiry: Please give measured IC50 of the following entry: "O=C(O)C1CCN(C(=O)c2cc(C(F)(F)F)ccc2CN2CCN(C(=O)OC(C(F)(F)F)C(F)(F)F)CC2)CC1"
Return: 0.1 to 1 µM

Enquiry: Please give measured IC50 of the following entry: "O=C(O)CN1CC2(CCN(c3cc(C(F)(F)F)ccc3CN3CCN(C(=O)OC(C(F)(F)F)C(F)(F)F)CC3)C2)C1"
Return: ≤ 0.1 µM

Enquiry: Please give measured IC50 of the following entry: "O=C(O)[C@@H]1CCCN1C1CCN(c2cc(C(F)(F)F)ccc2CN2CCN(C(=O)OC(C(F)(F)F)C(F)(F)F)CC2)CC1"
Return: ≤ 0.1 µM

* * *

- tgt: MAGL (Mus musculus, UniProt O35678)
- Construct: Proteomes (mouse brain membrane fraction or cell lysates); from tissue; host or cells: mouse brain membrane fraction or cell lysates
- Sequence (O35678 whole entry): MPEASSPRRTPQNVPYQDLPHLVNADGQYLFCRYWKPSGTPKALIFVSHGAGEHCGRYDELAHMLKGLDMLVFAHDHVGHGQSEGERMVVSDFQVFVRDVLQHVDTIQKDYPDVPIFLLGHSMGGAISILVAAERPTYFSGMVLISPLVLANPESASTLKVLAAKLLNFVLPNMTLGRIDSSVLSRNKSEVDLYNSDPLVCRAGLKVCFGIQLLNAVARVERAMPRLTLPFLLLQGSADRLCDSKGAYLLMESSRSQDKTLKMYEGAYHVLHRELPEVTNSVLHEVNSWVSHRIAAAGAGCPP
- measurement notes: Mouse brain proteomes from inhibitor treated mice, MAGL inhibition
- Format: in vivo
- protocol conditions: 5 mg/kg oral gavage, C57Bl/6J mouse brain, 4 h following administration; read-out: MAGL % inh. 5 mg/kg (mouse)
reported property: inhibition at 5 mg/kg

Recorded results for 4 molecules are shown here.
molecule	inhibition at 5 mg/kg
O=C(O)[C@@H]1CCCN(c2cc(C(F)(F)F)ccc2CN2CCN(C(=O)OC(C(F)(F)F)C(F)(F)F)CC2)C1	≥ 75%
CC1(C(=O)O)CCCN(c2cc(C(F)(F)F)ccc2CN2CCN(C(=O)OC(C(F)(F)F)C(F)(F)F)CC2)C1 (stereo not shown)	≥ 75%
CCC(C(=O)O)n1cc(-c2cc(C(F)(F)F)ccc2CN2CCN(C(=O)OC(C(F)(F)F)C(F)(F)F)CC2)cn1 (stereo not shown)	0 to 25%
O=C(O)c1ccsc1-c1cc(C(F)(F)F)ccc1CN1CCN(C(=O)OC(C(F)(F)F)C(F)(F)F)CC1	≥ 75%

Enquiry: Please give measured inhibition at 5 mg/kg of the following entry: "O=C(O)CN1CC2(CCN(c3cc(C(F)(F)F)ccc3CN3CCN(C(=O)OC(C(F)(F)F)C(F)(F)F)CC3)C2)C1"
Return: 0 to 25%

Enquiry: Please give measured inhibition at 5 mg/kg of the following entry: "O=C(OC(C(F)(F)F)C(F)(F)F)N1CCN(Cc2cccc(Cl)c2C2(C(=O)O)CCCC2)CC1"
Return: ≥ 75%

Enquiry: Please give measured inhibition at 5 mg/kg of the following entry: "O=C(O)CN1CCC2(C1)CN(c1cc(C(F)(F)F)ccc1CN1CCN(C(=O)OC(C(F)(F)F)C(F)(F)F)CC1)C2"
Return: 0 to 25%

Enquiry: Please give measured inhibition at 5 mg/kg of the following entry: "O=C(O)[C@@H]1CCCN1C1CCN(c2cc(C(F)(F)F)ccc2CN2CCN(C(=O)OC(C(F)(F)F)C(F)(F)F)CC2)CC1"
Return: 0 to 25%

Enquiry: Please give measured inhibition at 5 mg/kg of the following entry: "O=C(O)CN1CCCC12CN(c1cc(C(F)(F)F)ccc1CN1CCN(C(=O)OC(C(F)(F)F)C(F)(F)F)CC1)C2"
Return: ≥ 75%

Enquiry: Please give measured inhibition at 5 mg/kg of the following entry: "O=C(OC(C(F)(F)F)C(F)(F)F)N1CCN(Cc2ccccc2C2(C(=O)O)CCCC2)CC1"
Return: ≥ 75%

* * *

- tgt: ABHD6 (Mus musculus, UniProt Q8R2Y0)
- Construct: Proteomes (mouse brain membrane fraction or cell lysates); from tissue; host or cells: mouse brain membrane fraction or cell lysates
- Sequence (Q8R2Y0 1-336): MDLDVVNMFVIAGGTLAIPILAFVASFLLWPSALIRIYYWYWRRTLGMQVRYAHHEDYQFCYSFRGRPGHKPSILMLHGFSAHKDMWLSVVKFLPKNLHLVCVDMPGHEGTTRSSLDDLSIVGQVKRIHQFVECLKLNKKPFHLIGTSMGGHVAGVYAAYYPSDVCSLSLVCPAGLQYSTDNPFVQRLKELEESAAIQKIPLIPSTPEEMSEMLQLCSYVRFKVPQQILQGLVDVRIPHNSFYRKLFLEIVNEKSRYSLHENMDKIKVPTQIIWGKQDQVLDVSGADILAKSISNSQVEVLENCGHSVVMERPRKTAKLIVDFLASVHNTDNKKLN
- measurement notes: In vitro competitive activity-based protein profiling (mouse), ABHD6
- Type: biochemical
- protocol conditions: 1 μM inhibitor, mouse brain membrane fraction or cell lysates; read-out: ABHD6 % inh. 1 μM (mouse)
reported property: inhibition at 1 µM

Recorded results for 3 compounds are shown here.
compound	result
N#Cc1ccc(CN2CCN(C(=O)OC(C(F)(F)F)C(F)(F)F)CC2)c(-c2ccn(CC(=O)O)n2)c1	≥ 75%
O=C(O)c1csc(-c2cc(C(F)(F)F)ccc2CN2CCN(C(=O)OC(C(F)(F)F)C(F)(F)F)CC2)c1	≥ 75%
O=C(OC(C(F)(F)F)C(F)(F)F)N1CCN(Cc2cccc(Cl)c2C2(C(=O)O)CCCC2)CC1	50 to 75%

Enquiry: Please give measured inhibition at 1 µM of the following entry: "O=C(O)CN1CCCC12CCN(c1cc(C(F)(F)F)ccc1CN1CCN(C(=O)OC(C(F)(F)F)C(F)(F)F)CC1)CC2"
Return: 0 to 25%

Enquiry: Please give measured inhibition at 1 µM of the following entry: "O=C(O)C1CCN(Cc2cc(C(F)(F)F)ccc2CN2CCN(C(=O)OC(C(F)(F)F)C(F)(F)F)CC2)CC1"
Return: 0 to 25%

Enquiry: Please give measured inhibition at 1 µM of the following entry: "O=C(O)Cn1ccc(-c2cc(Cl)ccc2CN2CCN(C(=O)OC(C(F)(F)F)C(F)(F)F)CC2)n1"
Return: 0 to 25%

Enquiry: Please give measured inhibition at 1 µM of the following entry: "O=C(O)Cn1ccc(-c2ccccc2CN2CCN(C(=O)OC(C(F)(F)F)C(F)(F)F)CC2)n1"
Return: 0 to 25%

Enquiry: Please give measured inhibition at 1 µM of the following entry: O=C(O)CN1CCC(C2CCN(c3cc(Cl)ccc3CN3CCN(C(=O)OC(C(F)(F)F)C(F)(F)F)CC3)CC2)C1 (stereo not drawn)
Return: 50 to 75%

Enquiry: Please give measured inhibition at 1 µM of the following entry: "O=C(O)CN1CC2(CCN(c3cc(C(F)(F)F)ccc3CN3CCN(C(=O)OC(C(F)(F)F)C(F)(F)F)CC3)CC2)C1"
Return: 0 to 25%

Enquiry: Please give measured inhibition at 1 µM of the following entry: O=C(O)CN1CC2CN(c3cc(C(F)(F)F)ccc3CN3CCN(C(=O)OC(C(F)(F)F)C(F)(F)F)CC3)CC2C1 (stereo not drawn)
Return: 0 to 25%

Enquiry: Please give measured inhibition at 1 µM of the following entry: "O=C(O)C1CCN(c2cc(F)ccc2CN2CCN(C(=O)OC(C(F)(F)F)C(F)(F)F)CC2)CC1"
Return: 50 to 75%

Enquiry: Please give measured inhibition at 1 µM of the following entry: "O=C(O)c1ccsc1-c1cc(C(F)(F)F)ccc1CN1CCN(C(=O)OC(C(F)(F)F)C(F)(F)F)CC1"
Return: 25 to 50%

Enquiry: Please give measured inhibition at 1 µM of the following entry: "Cc1cc(C(=O)O)sc1-c1cc(C(F)(F)F)ccc1CN1CCN(C(=O)OC(C(F)(F)F)C(F)(F)F)CC1"
Return: 50 to 75%
